Data origin, for the record: paper PMC9486168

# TGT: AC1-C1b/CaM (Homo sapiens)
# Construct: made in house; host or cells: E. coli BL21-CodonPlus (DE3)-RIPL
# TEST: AC1-C1b/CaM fluorescence polarization (FP) assay
# Format: binding
# EXPERIMENTAL_CONTEXT: relative to 100 μM CDZ (100% inhibition); highest concentration tested
Counter-ions that a name gives are not always drawn.
Is AC1-CaM FP % inhib at least 50%? Then TRUE. If not, FALSE.

[[record]]
molecule = "[H]/N=C(\\N/C(=N/[H])NCCCCCCNC(=N)NC(=N)Nc1ccc(Cl)cc1)Nc1ccc(Cl)cc1 [Compound 9, Chlorhexidine HCl]"
category_label = "FALSE"

[[record]]
molecule = "CN(C(=O)CN(CCO)CC(=O)N(C)C(C)(C)Cc1ccccc1)C(C)(C)Cc1ccccc1"
category_label = "FALSE"

[[record]]
molecule = "CCCCC(CC)CNC(=N)NC(=N)NCCCCCCNC(=N)NC(=N)NCC(CC)CCCC (centres unmarked)"
category_label = "TRUE"

[[record]]
molecule = "CN1CCN(CCNC(=O)c2cc3c(=O)n(C)c(=O)n(C)c3s2)CC1"
category_label = "TRUE"

[[record]]
molecule = "CCc1oc2ccccc2c1C(=O)c1cc(Br)c(O)c(Br)c1"
category_label = "FALSE"

[[record]]
molecule = "CCC(C)CC(C)CCCCCCCCC(=O)NC1CC(O)C(NCCN)NC(=O)C2C(O)CCN2C(=O)C(C(O)CCN)NC(=O)C(C(O)C(O)c2ccc(O)cc2)NC(=O)C2CC(O)CN2C(=O)C(C(C)O)NC1=O (centres unmarked) [Compound 5, Caspofungin Acetate]"
category_label = "FALSE"

[[record]]
molecule = "CCCCCCCCCCCCCCCC[N+](C)(C)CCN(Cc1ccc(OC)cc1)c1ncccn1"
category_label = "TRUE"

[[record]]
molecule = "O=C1c2c(O)ccc(O)c2C(=O)c2c(NCCNCCO)ccc(NCCNCCO)c21 [Compound 11, Mitoxantrone HCl]"
category_label = "FALSE"

[[record]]
molecule = "CC1=C(CCC(=O)O)c2cc3[nH]c(cc4nc(cc5[nH]c(cc1n2)c(C)c5C(C)O)C(C)=C4C(C)O)c(C)c3CCC(=O)O (centres unmarked)"
category_label = "TRUE"

[[record]]
molecule = "Cn1cc(C(=O)Nc2ccc(Cl)cc2Cl)c2[nH]c(=O)n(-c3ccc(Cl)cc3)c(=O)c21"
category_label = "TRUE"

[[record]]
molecule = "O=S(=O)(Nc1ccc2c(c1)N(S(=O)(=O)c1ccc(F)cc1)CCC2)c1cccc(F)c1"
category_label = "TRUE"

[[record]]
molecule = "CCCCCCCCOc1ccccc1C(=O)Nc1ccc(C(=O)OCC[N+](C)(CC)CC)cc1"
category_label = "TRUE"

[[record]]
molecule = "CCc1cc(C(c2cccs2)N2CCN(C)CC2)c(NC(=O)c2ccco2)s1 (centres unmarked)"
category_label = "TRUE"

